// reported T 1/2 (h) (HLA-E*01:03) per item
# TARGET ENTITY: HLA-E*01:03 (Homo sapiens)
# Sequence (P13747 with tags, fused parts or gaps): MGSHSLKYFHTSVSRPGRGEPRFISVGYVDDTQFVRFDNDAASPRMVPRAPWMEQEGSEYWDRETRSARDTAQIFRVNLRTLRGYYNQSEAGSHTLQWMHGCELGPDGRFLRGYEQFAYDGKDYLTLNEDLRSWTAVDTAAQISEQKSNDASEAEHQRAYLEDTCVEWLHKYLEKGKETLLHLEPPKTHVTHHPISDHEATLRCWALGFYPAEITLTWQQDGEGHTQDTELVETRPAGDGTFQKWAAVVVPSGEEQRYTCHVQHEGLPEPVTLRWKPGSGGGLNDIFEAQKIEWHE
# Sequence (P61769 with tags, fused parts or gaps partner): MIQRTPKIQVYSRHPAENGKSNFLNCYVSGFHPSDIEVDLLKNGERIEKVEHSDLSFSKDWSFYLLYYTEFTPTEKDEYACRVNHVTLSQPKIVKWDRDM
# ASSAY NAME: Stability of native peptide-HLA-E complexes by loss of ILT2 binding over time (SPR)
# CONDITION INFO: […], half-life by ILT2 binding
Number only, in h; omit the unit.

Look over these answered cases.
> print(dat)
                           polymer.sequence  units.text  quantitative.readout
1  ILPSDAPVL [MTB peptide known to be presented by HLA-E]           h                  0.70
2                                 VMAPRTLIL           h                  3.20
3  VMATRRNVL [MTB peptide known to be presented by HLA-E]           h                  0.57

Now look at this one.
Q) If you can, please state the reported T 1/2 (h) (HLA-E*01:03) value of RMYSPVSIL [HIV (Gag 275) peptide known to be presented by HLA-E] .
A) 0.27
